biological target: human recombinant PLK4 (Homo sapiens (Human), UniProt O00444); experiment: PLK4 Biochemical Assay (ADP-Glo); settings: 0.5 nM PLK4, 8.0 µM ATP, 4.7 µM MBP, 6 hours at RT
Sequence (O00444 whole entry): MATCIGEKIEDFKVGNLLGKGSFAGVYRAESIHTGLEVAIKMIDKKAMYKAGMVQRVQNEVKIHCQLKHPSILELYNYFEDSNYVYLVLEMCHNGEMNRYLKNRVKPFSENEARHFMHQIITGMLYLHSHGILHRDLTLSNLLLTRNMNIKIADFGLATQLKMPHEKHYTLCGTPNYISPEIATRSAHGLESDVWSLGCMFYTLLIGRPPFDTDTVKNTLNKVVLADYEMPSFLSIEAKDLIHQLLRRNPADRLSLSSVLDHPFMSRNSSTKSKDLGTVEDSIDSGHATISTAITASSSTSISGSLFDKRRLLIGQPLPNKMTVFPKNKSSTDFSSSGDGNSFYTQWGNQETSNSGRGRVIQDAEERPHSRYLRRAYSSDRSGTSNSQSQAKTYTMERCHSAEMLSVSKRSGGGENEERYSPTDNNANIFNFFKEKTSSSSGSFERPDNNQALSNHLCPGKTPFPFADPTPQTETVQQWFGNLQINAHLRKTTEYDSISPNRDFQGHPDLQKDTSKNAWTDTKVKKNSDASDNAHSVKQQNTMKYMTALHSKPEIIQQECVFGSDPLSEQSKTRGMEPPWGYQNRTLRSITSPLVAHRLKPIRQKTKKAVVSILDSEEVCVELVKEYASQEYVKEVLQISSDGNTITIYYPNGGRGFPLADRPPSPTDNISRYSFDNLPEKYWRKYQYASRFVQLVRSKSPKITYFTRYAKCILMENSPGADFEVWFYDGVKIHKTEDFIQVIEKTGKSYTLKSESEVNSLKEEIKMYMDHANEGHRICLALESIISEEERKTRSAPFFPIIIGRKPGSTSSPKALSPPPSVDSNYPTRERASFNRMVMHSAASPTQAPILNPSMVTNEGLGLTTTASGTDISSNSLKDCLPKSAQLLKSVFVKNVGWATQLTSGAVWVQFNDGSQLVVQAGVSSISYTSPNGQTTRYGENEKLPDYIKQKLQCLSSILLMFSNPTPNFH
The reader will find reported log10 IC50 values listed item by item below.
experimental_endpoint: log10 IC50 (log10 of the value in nM)

INSERT INTO assay_data (smiles_text, reported_measurement) VALUES
  ('COc1ccc2c(c1)[C@]1(C[C@H]1c1ccc3c(Nc4ccnc(N5CCOCC5)c4OC)n[nH]c3c1)C(=O)N2', 0.12),
  ('COc1ccc2c(c1)[C@]1(C[C@H]1c1ccc3c(Nc4nnccc4OC)n[nH]c3c1)C(=O)N2', 1.25),
  ('COc1ccc2c(c1)[C@]1(C[C@H]1c1ccc3c(Nc4ccc(N5CCCC5=O)nc4OC)n[nH]c3c1)C(=O)N2', 0.32),
  ('COc1ccc2c(c1)[C@]1(C[C@H]1c1ccc3c(Nc4ncnc(N5CC(O)C5)c4Cl)n[nH]c3c1)C(=O)N2', 0.40),
  ('CCOc1nc(C(=O)N(C)C)ccc1Nc1n[nH]c2cc([C@@H]3C[C@@]34C(=O)Nc3ccc(OC)cc34)ccc12', 0.00),
  ('CCn1nc(C2CC2)cc1Nc1n[nH]c2cc([C@@H]3C[C@@]34C(=O)Nc3ccc(OC)cc34)ccc12', 0.95),
  ('COc1ccc2c(c1)[C@]1(C[C@H]1c1ccc3c(Nc4cnc(C(=O)N(C)C)cc4OC)n[nH]c3c1)C(=O)N2', 0.78);

---

target: human recombinant PLK4 (Homo sapiens (Human), UniProt O00444); assay: PLK4 Biochemical Assay (ADP-Glo); conditions: 0.5 nM PLK4, 8.0 µM ATP, 4.7 µM MBP, 6 hours at RT
pIC50: −log10 of the molar value.
experimental_endpoint: pIC50

INSERT INTO assay_data (smiles_text, assayed_target, experimental_endpoint, reported_measurement) VALUES
  ('COc1ccc2c(c1)[C@]1(C[C@H]1c1ccc3c(Nc4ccc(C(=O)N5CC(F)(F)C5)nc4OC)n[nH]c3c1)C(=O)N2', 'human recombinant PLK4 (Homo sapiens (Human), UniProt O00444)', 'pIC50', 8.16),
  ('COc1ccc2c(c1)[C@]1(C[C@H]1c1ccc3c(Nc4cn(C)nc4OC)n[nH]c3c1)C(=O)N2', 'human recombinant PLK4 (Homo sapiens (Human), UniProt O00444)', 'pIC50', 7.47),
  ('COc1ccc2c(c1)[C@]1(C[C@H]1c1ccc3c(Nc4nc(C)nc(N5C[C@@H](C)O[C@@H](C)C5)c4OC)n[nH]c3c1)C(=O)N2', 'human recombinant PLK4 (Homo sapiens (Human), UniProt O00444)', 'pIC50', 8.87),
  ('CCS(=O)(=O)c1cc(OC)c(Nc2n[nH]c3cc([C@@H]4C[C@@]45C(=O)Nc4ccc(OC)cc45)ccc23)cn1', 'human recombinant PLK4 (Homo sapiens (Human), UniProt O00444)', 'pIC50', 8.86),
  ('COc1ccc2c(c1)[C@]1(C[C@H]1c1ccc3c(Nc4nccnc4OC)n[nH]c3c1)C(=O)N2', 'human recombinant PLK4 (Homo sapiens (Human), UniProt O00444)', 'pIC50', 8.52),
  ('COc1ccc2c(c1)[C@]1(C[C@H]1c1ccc3c(Nc4ccc(C(=O)NC(C)C)nc4OC)n[nH]c3c1)C(=O)N2', 'human recombinant PLK4 (Homo sapiens (Human), UniProt O00444)', 'pIC50', 8.81),
  ('COc1ccc2c(c1)[C@]1(C[C@H]1c1ccc3c(Nc4ncc(C5CS(=O)(=O)C5)nc4OC)n[nH]c3c1)C(=O)N2', 'human recombinant PLK4 (Homo sapiens (Human), UniProt O00444)', 'pIC50', 8.28),
  ('COc1ccc2c(c1)[C@]1(C[C@H]1c1ccc3c(Nc4nc(CC(C)(C)O)nc(N5CCOCC5)c4OC)n[nH]c3c1)C(=O)N2', 'human recombinant PLK4 (Homo sapiens (Human), UniProt O00444)', 'pIC50', 7.61),
  ('COc1ccc2c(c1)[C@]1(C[C@H]1c1ccc3c(Nc4nc(C(C)C)nc(N5CCS(=O)(=O)CC5)c4Cl)n[nH]c3c1)C(=O)N2', 'human recombinant PLK4 (Homo sapiens (Human), UniProt O00444)', 'pIC50', 9.46),
  ('COc1ccc2c(c1)[C@]1(C[C@H]1c1ccc3c(Nc4nc(C)ncc4OCC(F)(F)F)n[nH]c3c1)C(=O)N2', 'human recombinant PLK4 (Homo sapiens (Human), UniProt O00444)', 'pIC50', 8.50),
  ('COc1ccc2c(c1)[C@]1(C[C@H]1c1ccc3c(Nc4ncnc(N5CCOCC5)c4OC)n[nH]c3c1)C(=O)N2C', 'human recombinant PLK4 (Homo sapiens (Human), UniProt O00444)', 'pIC50', 7.97),
  ('COc1ccc2c(c1)[C@]1(C[C@H]1c1ccc3c(Nc4nc(Cl)nc(N5CCOCC5)c4OC)n[nH]c3c1)C(=O)N2', 'human recombinant PLK4 (Homo sapiens (Human), UniProt O00444)', 'pIC50', 8.48),
  ('COc1ccc2c(c1)[C@]1(C[C@H]1c1ccc3c(Nc4cnn5c4OCC5)n[nH]c3c1)C(=O)N2', 'human recombinant PLK4 (Homo sapiens (Human), UniProt O00444)', 'pIC50', 7.51),
  ('COc1ccc2c(c1)[C@]1(C[C@H]1c1ccc3c(Nc4nc(Cl)c(OC)c(N5CCOCC5)n4)n[nH]c3c1)C(=O)N2', 'human recombinant PLK4 (Homo sapiens (Human), UniProt O00444)', 'pIC50', 7.72);

Source of measurements: patent US20230365537A1
